- TEST_SYSTEM: hOX1R (Homo sapiens)
- METHOD_SUMMARY: FLIPR Ca2+ Flux Assay, CHO cells expressing orexin-1 receptor
- CONDITION_SUMMARY: 70 pM Ala-6,12 orexin-A agonist
READOUT_LABEL: pIC50
pIC50 (log units): -log10 of the concentration in mol/L.

Worked examples, 5 molecules total:
C[C@@H]1CC[C@@H](Oc2nccc3c2C(=O)OC3(C)C)CN1C(=O)c1c(F)cccc1-n1nccn1 [Example 2] ... 5.00
C[C@@H]1CC[C@@H](Oc2nccc3c2C(=O)OC3(C)C)CN1C(=O)c1c(F)cccc1-c1ncccn1 ... 5.00
C[C@@H]1CC[C@@H](Oc2nccc3c2C(=O)OC3(C)C)CN1C(=O)c1c(F)cccc1-n1nccn1 [Example 6] ... 5.57
C[C@@H]1CC[C@@H](Oc2nccc3c2C(=O)OC3(C)C)CN1C(=O)c1cccc(F)c1-n1nccn1 ... 5.00
C[C@@H]1CC[C@@H](Oc2nccc3c2C(=O)OC3(C)C)CN1C(=O)c1ccccc1-n1ncnn1 ... 5.00

**Q:** Form field: pIC50 recorded for "C[C@@H]1CC[C@@H](Oc2nccc3c2C(=O)OC3(C)C)CN1C(=O)c1ccsc1-c1ncccn1" with hOX1R (Homo sapiens) (enter value)
**A:** 5.04

**Q:** Form field: pIC50 recorded for "C[C@@H]1CC[C@@H](Oc2nccc3c2COC3=O)CN1C(=O)c1ccccc1C1(C#N)CC1" with hOX1R (Homo sapiens) (enter value)
**A:** 5.75

**Q:** Form field: pIC50 recorded for "COc1ccc(C(=O)N2C[C@H](Oc3nccc4c3C(=O)OC4(C)C)CC[C@H]2C)c(-n2nccn2)n1" with hOX1R (Homo sapiens) (enter value)
**A:** 5.00

* * *

- TEST_SYSTEM: hOX1R (Homo sapiens)
- METHOD_SUMMARY: FLIPR Ca2+ Flux Assay, CHO cells expressing orexin-1 receptor
- Format: cell-based
- CONDITION_SUMMARY: 70 pM Ala-6,12 orexin-A agonist
Recorded IC50 by entry

Worked examples, 3 molecules total:
C[C@@H]1CC[C@@H](Oc2nccc3c2COC3=O)CN1C(=O)c1ccc(F)cc1-n1nccn1 ... 8.29 µM
C[C@@H]1CC[C@@H](Oc2nccc3c2C(=O)OC3(C)C)CN1C(=O)c1ccc(Cl)cc1-n1nccn1 ... 3.74 µM
C[C@@H]1CC[C@@H](Nc2nccc3c2C(=O)OC3(C)C)CN1C(=O)c1ccccc1-n1nccn1 ... 5.88 µM

**Q:** # IC50 lookup, item "C[C@@H]1CC[C@@H](Oc2nccc3c2COC3=O)CN1C(=O)c1ccccc1CS(C)(=O)=O"
**A:** ≥ 10 µM

**Q:** # IC50 lookup, item "Cc1noc(-c2cccc(F)c2C(=O)N2C[C@H](Oc3nccc4c3C(=O)OC4(C)C)CC[C@H]2C)n1"
**A:** 10 µM

**Q:** # IC50 lookup, item "Cc1noc(-c2cc(F)ccc2C(=O)N2C[C@H](Oc3nccc4c3C(=O)OC4(C)C)CC[C@H]2C)n1"
**A:** 10 µM

**Q:** # IC50 lookup, item "Cc1noc(-c2ccc(F)cc2C(=O)N2C[C@H](Oc3nccc4c3C(=O)OC4(C)C)CC[C@H]2C)n1"
**A:** 10 µM

**Q:** # IC50 lookup, item "C[C@@H]1CC[C@@H](Oc2nccc3c2COC3=O)CN1C(=O)c1ccsc1-c1ncccn1"
**A:** 6.16 µM

**Q:** # IC50 lookup, item "C[C@@H]1CC[C@@H](Oc2nccc3c2COC3=O)CN1C(=O)c1ccsc1-n1nccn1"
**A:** 3.16 µM

**Q:** # IC50 lookup, item "C[C@@H]1CC[C@@H](Oc2nccc3c2COC3=O)CN1C(=O)c1ccccc1-n1ncnn1"
**A:** 10 µM
